The reported measurements were obtained from patent US20110230476A1.

# pIC50 annotations
- study.target: PI3Kα (p110α/p85α) (Homo sapiens, UniProt P42336)
- Sequence (P42336 whole entry): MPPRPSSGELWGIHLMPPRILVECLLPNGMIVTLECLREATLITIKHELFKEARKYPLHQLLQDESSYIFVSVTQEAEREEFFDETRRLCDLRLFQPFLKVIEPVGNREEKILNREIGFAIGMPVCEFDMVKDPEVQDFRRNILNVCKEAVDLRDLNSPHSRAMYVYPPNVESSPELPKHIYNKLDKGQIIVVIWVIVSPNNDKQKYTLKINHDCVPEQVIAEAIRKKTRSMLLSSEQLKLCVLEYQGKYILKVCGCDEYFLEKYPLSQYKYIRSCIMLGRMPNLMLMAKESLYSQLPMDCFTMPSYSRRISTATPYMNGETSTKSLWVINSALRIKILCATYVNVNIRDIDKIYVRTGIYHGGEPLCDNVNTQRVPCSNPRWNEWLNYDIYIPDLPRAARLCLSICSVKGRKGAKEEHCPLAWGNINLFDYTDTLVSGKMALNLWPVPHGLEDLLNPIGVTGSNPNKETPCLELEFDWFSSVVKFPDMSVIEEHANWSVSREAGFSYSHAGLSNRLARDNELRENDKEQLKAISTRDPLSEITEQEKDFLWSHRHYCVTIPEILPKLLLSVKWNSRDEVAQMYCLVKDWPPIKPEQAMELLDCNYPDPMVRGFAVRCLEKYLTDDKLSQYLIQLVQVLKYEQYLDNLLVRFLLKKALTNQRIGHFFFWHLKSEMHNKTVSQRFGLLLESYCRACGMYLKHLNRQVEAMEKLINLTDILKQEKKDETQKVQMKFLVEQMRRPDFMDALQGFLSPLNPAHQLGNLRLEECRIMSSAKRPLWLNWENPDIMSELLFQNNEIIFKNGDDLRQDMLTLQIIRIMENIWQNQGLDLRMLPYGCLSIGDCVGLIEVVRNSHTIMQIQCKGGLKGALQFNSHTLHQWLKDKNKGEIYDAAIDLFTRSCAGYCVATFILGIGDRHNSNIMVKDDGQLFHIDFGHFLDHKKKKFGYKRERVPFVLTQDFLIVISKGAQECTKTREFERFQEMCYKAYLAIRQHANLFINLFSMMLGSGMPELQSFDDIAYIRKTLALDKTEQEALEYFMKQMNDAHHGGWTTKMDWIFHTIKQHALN
- Sequence (P27986 whole entry partner): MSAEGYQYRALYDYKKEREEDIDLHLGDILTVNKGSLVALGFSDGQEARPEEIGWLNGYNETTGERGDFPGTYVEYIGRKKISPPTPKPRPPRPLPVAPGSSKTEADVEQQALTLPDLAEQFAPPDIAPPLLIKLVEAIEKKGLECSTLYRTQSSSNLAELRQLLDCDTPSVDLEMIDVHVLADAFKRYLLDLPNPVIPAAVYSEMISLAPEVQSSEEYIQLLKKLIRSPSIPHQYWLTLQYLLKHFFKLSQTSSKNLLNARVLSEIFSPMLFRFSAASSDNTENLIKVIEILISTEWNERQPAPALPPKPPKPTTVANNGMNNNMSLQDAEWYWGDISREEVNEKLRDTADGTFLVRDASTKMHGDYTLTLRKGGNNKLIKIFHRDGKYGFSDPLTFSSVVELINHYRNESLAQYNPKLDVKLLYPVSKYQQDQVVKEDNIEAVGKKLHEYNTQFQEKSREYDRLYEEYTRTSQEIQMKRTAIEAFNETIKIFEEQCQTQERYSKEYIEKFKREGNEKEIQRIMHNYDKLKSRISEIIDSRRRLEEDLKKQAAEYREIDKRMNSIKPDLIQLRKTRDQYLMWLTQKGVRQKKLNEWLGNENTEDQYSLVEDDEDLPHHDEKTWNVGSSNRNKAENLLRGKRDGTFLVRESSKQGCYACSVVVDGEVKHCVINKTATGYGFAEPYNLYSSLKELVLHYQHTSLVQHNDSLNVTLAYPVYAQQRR
- assay.details: HTRF assay, potency against active PI3Kα
- setup.conditions: HTRF; [ATP]=50 μM, [di-C8-PIP2]=10 μM; 30 min pre-incubation; read-out: PI3Kα Inhibition
pIC50: −log10 of the molar value.
measured.quantity: pIC50

record.smiles	study.target	measured.quantity	result
O=C(/C=C/CNC(=O)CCCC(=O)NCCCOCCOCCOCCCNC(=O)CCCC[C@@H]1SC[C@@H]2NC(=O)N[C@@H]21)CCC(=O)N1CCN(Cc2cc3nc(-c4cccc5[nH]ncc45)nc(N4CCOCC4)c3s2)CC1	PI3Kα (p110α/p85α) (Homo sapiens, UniProt P42336)	pIC50	< 6.00
C=CC(=O)NCCS(=O)(=O)N1CCN(Cc2cc3nc(-c4cccc5[nH]ncc45)nc(N4CCOCC4)c3s2)CC1	PI3Kα (p110α/p85α) (Homo sapiens, UniProt P42336)	pIC50	7.00 to 8.00
C=CC(=O)NOCC(=O)N1CCN(Cc2cc3nc(-c4cccc5[nH]ncc45)nc(N4CCOCC4)c3s2)CC1	PI3Kα (p110α/p85α) (Homo sapiens, UniProt P42336)	pIC50	6.00 to 7.00
C=CC(=O)Nc1ccc(CN(C)Cc2cc3nc(-c4cnc(N)nc4)nc(N4CCOCC4)c3s2)cc1	PI3Kα (p110α/p85α) (Homo sapiens, UniProt P42336)	pIC50	7.00 to 8.00
CC(C)=CC(=O)CCc1ccc(C#Cc2cc(-c3cccc4[nH]ncc34)nc(N3CCOCC3)c2)cc1	PI3Kα (p110α/p85α) (Homo sapiens, UniProt P42336)	pIC50	< 6.00
C/C=C/C(=O)OCC(=O)N1CCN(Cc2cc3nc(-c4cccc5[nH]ncc45)nc(N4CCOCC4)c3s2)CC1	PI3Kα (p110α/p85α) (Homo sapiens, UniProt P42336)	pIC50	< 6.00
C=CC(=O)N1CCC(O)(C#Cc2cc3nc(-c4cccc(O)c4)nc(N4CCOCC4)c3s2)CC1	PI3Kα (p110α/p85α) (Homo sapiens, UniProt P42336)	pIC50	7.00 to 8.00

====

- study.target: PI3Kα (p110α/p85α) (Homo sapiens, UniProt P42336)
- Construct: purchased BPS Bioscience (San Diego, Calif.) or Millipore (Billerica, Mass.)
- assay.details: HTRF assay, potency against active PI3Kα
- Type: biochemical
- setup.conditions: HTRF; [ATP]=50 μM, [di-C8-PIP2]=10 μM; 30 min pre-incubation; read-out: PI3Kα Inhibition
- Text: Homogeneous Time Resolved Fluorescence (HTRF) Assay Protocol for Potency Assessment Against the Active Forms of PI3Kα, PI3Kβ, and PI3Kγ The mechanics of the assay platform are best described by the vendor (Millipore, Billerica, Mass.) on their website at the following URL: www.millipore.com/coa/tech1/74jt4z. […]

record.smiles	IC50
C=CC(=O)Nc1ccc(CCNC(=O)c2cc3nc(-c4cnc(N)nc4)nc(N4CCOCC4)c3s2)cc1	10 to 100 nM
C/C=C/C(=O)CCC(=O)N1CCN(Cc2cc3nc(-c4cccc5[nH]ncc45)nc(N4CCOCC4)c3s2)CC1	< 10 nM
CC(C)=CC(=O)C(=O)Nc1ccc(C#Cc2cc(-c3cnc(N)nc3)nc(N3CCOCC3)c2)cc1	< 10 nM
CCCC(=O)CCC(=O)NCC(=O)N1CCN(Cc2cc3nc(-c4cccc5[nH]ncc45)nc(N4CCOCC4)c3s2)CC1	100 to 1000 nM
C=CC(=O)Nc1ccc(OCc2cc(-c3cnc(N)nc3)nc(N3CCOCC3)c2)cc1	100 to 1000 nM
CCC(=O)Nc1ccc(CCNC(=O)c2cc3nc(-c4cccc5[nH]ncc45)nc(N4CCOCC4)c3s2)cc1	100 to 1000 nM
C=CC(=O)Nc1cc(C(=O)N2CC=C(c3cc4nc(-c5cnc(N)nc5)nc(N5CCOCC5)c4s3)CC2)ccc1Cl	10 to 100 nM
